These data points were gathered from PubChem BioAssay AID651847.

procedure summary: dose response, V. cholerae BH1651, dry powder (AID 651847)
setup conditions: V. cholerae BH1651 luxOD47E, luciferase light induction, 6 h; at 80 µM (top of the series) unless noted
Inconclusive results are not listed.
The threshold is inclusive: activation (light induction) of exactly 10% counts as label 1; values below receive label 0.

Answered examples (3):
O=C(NCc1ccc(-c2ccccc2)cc1)C1CCCC1 ... label 1
COc1ccc(CC(=O)NC2CCCC2)cc1 ... label 1
CCn1nccc1/N=C/c1ccc(N2CCCC2)cc1 ... label 0

Query string: Could you tell me if the measured activation (light induction) of CCn1nnc(NCc2ccc(C)cc2)n1 reaches 10% or more?
Result string: label 1

Query string: # check: activation (light induction) of O=C(Cc1ccc(-c2ccccc2)cc1)NC1CC1 is greater than or equal to 10%
Result string: label 1

Query string: Confirm if activation (light induction) reported for the compound CC1(NC(=O)Cc2ccc(-c3ccccc3)cc2)COC1 is 10% or above.
Result string: label 0
